Ref: ChEMBL document CHEMBL1133729

STUDY SYSTEM: Adrenergic receptors; alpha-1 A & B (Homo sapiens) (UniProt P35348+P35368)
Sequence (P35348 whole entry, looked up, one chain of several): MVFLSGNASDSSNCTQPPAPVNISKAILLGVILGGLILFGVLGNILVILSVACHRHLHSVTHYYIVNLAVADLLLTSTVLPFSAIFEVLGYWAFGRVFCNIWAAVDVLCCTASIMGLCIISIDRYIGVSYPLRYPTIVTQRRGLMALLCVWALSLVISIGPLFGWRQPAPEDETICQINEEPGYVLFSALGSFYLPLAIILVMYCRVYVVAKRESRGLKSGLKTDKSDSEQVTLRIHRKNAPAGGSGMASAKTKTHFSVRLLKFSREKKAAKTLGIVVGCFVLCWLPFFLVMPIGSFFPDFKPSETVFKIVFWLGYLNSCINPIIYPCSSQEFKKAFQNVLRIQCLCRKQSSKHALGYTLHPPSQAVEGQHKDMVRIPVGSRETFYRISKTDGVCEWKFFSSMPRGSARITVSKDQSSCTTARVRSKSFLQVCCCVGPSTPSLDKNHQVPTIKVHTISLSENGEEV
EXPERIMENT DESCRIPTION: Ratio of binding affinity towards Alpha1b to Alpha-1A
Format: protein assay
READOUT: Ratio

[
  {
    "COMPOUND": "CCOc1ccccc1N1CCN(CC(O)CNC(=O)c2ccc3c(c2)C(=O)N(c2cccc(F)c2)C3=O)CC1 (centres undefined)",
    "STUDY SYSTEM": "Adrenergic receptors; alpha-1 A & B (Homo sapiens) (UniProt P35348+P35368)",
    "OBS VALUE": "> 470"
  },
  {
    "COMPOUND": "CC(C)Oc1ccccc1N1CCN(CC(O)CNC(=O)c2ccc3c(c2)C(=O)N(c2ccc(F)cc2)C3=O)CC1 (centres undefined)",
    "STUDY SYSTEM": "Adrenergic receptors; alpha-1 A & B (Homo sapiens) (UniProt P35348+P35368)",
    "OBS VALUE": "> 1100"
  },
  {
    "COMPOUND": "CC(C)Oc1ccccc1N1CCN(C[C@H](O)CNC(=O)c2ccc3c(c2)C(=O)N(c2cccc(F)c2)C3=O)CC1",
    "STUDY SYSTEM": "Adrenergic receptors; alpha-1 A & B (Homo sapiens) (UniProt P35348+P35368)",
    "OBS VALUE": "> 250"
  },
  {
    "COMPOUND": "COc1ccccc1N1CCN(CC(O)CNC(=O)c2ccc3c(c2)C(=O)N(c2cccc(F)c2)C3=O)CC1 (centres undefined)",
    "STUDY SYSTEM": "Adrenergic receptors; alpha-1 A & B (Homo sapiens) (UniProt P35348+P35368)",
    "OBS VALUE": "> 90"
  }
]

###

STUDY SYSTEM: D(2) dopamine receptor (Homo sapiens)
Sequence (P14416 whole entry): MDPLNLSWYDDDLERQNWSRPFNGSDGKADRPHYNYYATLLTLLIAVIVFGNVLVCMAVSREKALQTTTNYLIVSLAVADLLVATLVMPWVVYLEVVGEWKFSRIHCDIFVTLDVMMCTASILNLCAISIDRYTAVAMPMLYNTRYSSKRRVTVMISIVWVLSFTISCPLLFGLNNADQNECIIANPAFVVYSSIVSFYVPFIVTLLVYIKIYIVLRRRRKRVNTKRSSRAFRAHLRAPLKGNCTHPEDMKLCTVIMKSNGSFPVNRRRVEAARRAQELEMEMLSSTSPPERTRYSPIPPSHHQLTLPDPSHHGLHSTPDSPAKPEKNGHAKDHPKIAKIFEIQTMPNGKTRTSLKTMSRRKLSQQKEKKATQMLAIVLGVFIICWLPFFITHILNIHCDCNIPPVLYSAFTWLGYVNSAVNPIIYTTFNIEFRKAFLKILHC
EXPERIMENT DESCRIPTION: Compound at 1 uM was tested for the inhibition of radioligand [3H]spiperone binding to recombinant human Dopamine receptor D2S

[
  {
    "STRUCTURE STRING": "Cc1ccc(N2C(=O)c3ccc(C(=O)NC[C@H](O)CN4CCN(c5ccccc5OC(C)C)CC4)cc3C2=O)cc1",
    "inhibition [%]": 70
  },
  {
    "STRUCTURE STRING": "COc1ccc(N2C(=O)c3ccc(C(=O)NCCCN4CCN(c5ccccc5OC(C)C)CC4)cc3C2=O)cc1",
    "inhibition [%]": 87
  },
  {
    "STRUCTURE STRING": "CC(C)Oc1ccccc1N1CCN(C[C@@H](O)CNC(=O)c2ccc3c(c2)C(=O)N(c2cccc(F)c2)C3=O)CC1",
    "inhibition [%]": 51
  }
]

###

STUDY SYSTEM: UniProtKB P31389
Sequence (P31389 whole entry): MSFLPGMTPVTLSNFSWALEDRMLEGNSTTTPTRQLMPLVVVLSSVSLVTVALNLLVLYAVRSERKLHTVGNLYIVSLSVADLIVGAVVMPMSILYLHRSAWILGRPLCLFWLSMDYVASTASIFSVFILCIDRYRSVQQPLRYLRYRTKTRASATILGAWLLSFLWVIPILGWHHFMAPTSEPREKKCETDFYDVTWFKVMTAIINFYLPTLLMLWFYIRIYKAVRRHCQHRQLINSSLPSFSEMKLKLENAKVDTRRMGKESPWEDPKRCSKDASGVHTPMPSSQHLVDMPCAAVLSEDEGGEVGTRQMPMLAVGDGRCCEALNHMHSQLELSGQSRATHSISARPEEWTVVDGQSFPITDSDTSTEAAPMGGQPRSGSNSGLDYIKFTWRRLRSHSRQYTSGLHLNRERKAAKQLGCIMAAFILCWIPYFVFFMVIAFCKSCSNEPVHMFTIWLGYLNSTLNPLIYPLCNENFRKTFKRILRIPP
EXPERIMENT DESCRIPTION: Compound at 1 uM was tested for the inhibition of radioligand [3H]pyrilamine binding to central histamine H1 receptor in guinea pig brain
YES means recorded inhibition is 90% or above; NO means it is below 90%.

[
  {
    "MOLECULE": "COc1ccc(N2C(=O)c3ccc(C(=O)NCCCN4CCN(c5ccccc5OC(C)C)CC4)cc3C2=O)cc1",
    "QUALITATIVE LABEL": "YES"
  },
  {
    "MOLECULE": "CCOc1ccccc1OCCN[C@H](C)Cc1ccc(OC)c(S(N)(=O)=O)c1 [TAMSULOSIN]",
    "QUALITATIVE LABEL": "NO"
  },
  {
    "MOLECULE": "Cc1ccc(N2C(=O)c3ccc(C(=O)NCCCN4CCN(c5ccccc5OC(C)C)CC4)cc3C2=O)cc1",
    "QUALITATIVE LABEL": "YES"
  },
  {
    "MOLECULE": "CC(C)Oc1ccccc1N1CCN(C[C@@H](O)CNC(=O)c2ccc3c(c2)C(=O)N(c2cccc(F)c2)C3=O)CC1",
    "QUALITATIVE LABEL": "YES"
  },
  {
    "MOLECULE": "Cc1ccc(N2C(=O)c3ccc(C(=O)NC[C@H](O)CN4CCN(c5ccccc5OC(C)C)CC4)cc3C2=O)cc1",
    "QUALITATIVE LABEL": "YES"
  },
  {
    "MOLECULE": "CC(C)Oc1ccccc1N1CCN(CCCNC(=O)c2ccc3c(c2)C(=O)N(c2cccc(F)c2)C3=O)CC1",
    "QUALITATIVE LABEL": "NO"
  }
]

###

Tested on: Alpha-1D/Alpha-1A adrenergic receptor (Homo sapiens)
EXPERIMENT DESCRIPTION: Ratio of binding affinity towards Alpha1d to Alpha-1A
# Ratio listing for each entry below

[
  {
    "COMPOUND": "Cc1ccc(N2C(=O)c3ccc(C(=O)NCCCN4CCN(c5ccccc5OC(C)C)CC4)cc3C2=O)cc1",
    "Ratio": 231
  },
  {
    "COMPOUND": "CC(C)Oc1ccccc1N1CCN(CCCNC(=O)c2ccc3c(c2)C(=O)N(c2ccc(O)cc2)C3=O)CC1",
    "Ratio": 50
  },
  {
    "COMPOUND": "CC(C)Oc1ccccc1N1CCN(CC(O)CNC(=O)c2ccc3c(c2)C(=O)N(c2ccc(Cl)c(Cl)c2)C3=O)CC1 (stereo not drawn)",
    "Ratio": 43
  }
]

###

# Ratio listing for each entry below
System: Alpha-1D/Alpha-1A adrenergic receptor (Homo sapiens)
EXPERIMENT DESCRIPTION: Ratio of binding affinity towards Alpha1d to Alpha-1A

[
  {
    "COMPOUND": "CC(C)Oc1ccccc1N1CCN(CC(O)CNC(=O)c2ccc3c(c2)C(=O)N(c2ccccc2)C3=O)CC1 (centres undefined)",
    "STUDY SYSTEM": "Alpha-1D/Alpha-1A adrenergic receptor (Homo sapiens)",
    "Ratio": 72
  },
  {
    "COMPOUND": "COc1cc(N2C(=O)c3ccc(C(=O)NCC(O)CN4CCN(c5ccccc5OC(C)C)CC4)cc3C2=O)cc(OC)c1OC (centres undefined)",
    "STUDY SYSTEM": "Alpha-1D/Alpha-1A adrenergic receptor (Homo sapiens)",
    "Ratio": 125
  },
  {
    "COMPOUND": "COc1ccc(N2C(=O)c3ccc(C(=O)NCC(O)CN4CCN(c5ccccc5OC(C)C)CC4)cc3C2=O)cc1OC (centres undefined)",
    "STUDY SYSTEM": "Alpha-1D/Alpha-1A adrenergic receptor (Homo sapiens)",
    "Ratio": 57
  },
  {
    "COMPOUND": "CC(C)Oc1ccccc1N1CCN(CC(O)CNC(=O)c2ccc3c(c2)C(=O)N(c2cccc(Cl)c2)C3=O)CC1 (centres undefined)",
    "STUDY SYSTEM": "Alpha-1D/Alpha-1A adrenergic receptor (Homo sapiens)",
    "Ratio": 54
  }
]

###

Target sequence: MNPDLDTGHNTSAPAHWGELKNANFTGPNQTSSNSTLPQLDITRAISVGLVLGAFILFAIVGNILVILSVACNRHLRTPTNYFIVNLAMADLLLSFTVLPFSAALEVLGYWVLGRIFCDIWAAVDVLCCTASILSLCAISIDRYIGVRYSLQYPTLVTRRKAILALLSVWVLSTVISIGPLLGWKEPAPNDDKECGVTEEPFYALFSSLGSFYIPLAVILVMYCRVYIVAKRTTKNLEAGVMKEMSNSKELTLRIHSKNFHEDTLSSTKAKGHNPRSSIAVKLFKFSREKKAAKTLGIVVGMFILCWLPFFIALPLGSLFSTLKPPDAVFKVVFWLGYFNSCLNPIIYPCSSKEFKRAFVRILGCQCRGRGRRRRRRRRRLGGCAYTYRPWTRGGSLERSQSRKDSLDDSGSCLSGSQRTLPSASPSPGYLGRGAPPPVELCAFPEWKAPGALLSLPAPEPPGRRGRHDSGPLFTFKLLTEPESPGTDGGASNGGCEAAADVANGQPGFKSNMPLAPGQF

[
  {
    "COMPOUND": "CC(C)Oc1ccccc1N1CCN(CC(O)CNC(=O)c2ccc3c(c2)C(=O)N(c2ccc(Cl)cc2)C3=O)CC1 (stereo not given)",
    "Ki": "606 nM"
  },
  {
    "COMPOUND": "CC(C)Oc1ccccc1N1CCN(CC(O)CNC(=O)c2ccc3c(c2)C(=O)N(c2ccc([N+](=O)[O-])cc2)C3=O)CC1 (stereo not given)",
    "Ki": "> 2000 nM"
  },
  {
    "COMPOUND": "COC(CNC(=O)c1ccc2c(c1)C(=O)N(c1cccc(F)c1)C2=O)CN1CCN(c2ccccc2OC(C)C)CC1 (stereo not given)",
    "Ki": "> 2000 nM"
  },
  {
    "COMPOUND": "Cc1ccc(N2C(=O)c3ccc(C(=O)NCCCN4CCN(c5ccccc5OC(C)C)CC4)cc3C2=O)cc1",
    "Ki": "> 2000 nM"
  },
  {
    "COMPOUND": "COc1ccc(N2C(=O)c3ccc(C(=O)NCCCN4CCN(c5ccccc5OC(C)C)CC4)cc3C2=O)cc1",
    "Ki": "361 nM"
  },
  {
    "COMPOUND": "COc1ccc(N2C(=O)c3ccc(C(=O)NCC(O)CN4CCN(c5ccccc5OC(C)C)CC4)cc3C2=O)cc1 (stereo not given)",
    "Ki": "> 2000 nM"
  },
  {
    "COMPOUND": "CCOc1ccccc1N1CCN(CC(O)CNC(=O)c2ccc3c(c2)C(=O)N(c2cccc(F)c2)C3=O)CC1 (stereo not given)",
    "Ki": "> 2000 nM"
  },
  {
    "COMPOUND": "CC(C)Oc1ccccc1N1CCN(C[C@@H](O)CNC(=O)c2ccc3c(c2)C(=O)N(c2ccc(N(C)C)cc2)C3=O)CC1",
    "Ki": "> 2000 nM"
  },
  {
    "COMPOUND": "CC(C)Oc1ccccc1N1CCN(CC(O)CNC(=O)c2ccc3c(c2)C(=O)N(c2ccccc2)C3=O)CC1 (stereo not given)",
    "Ki": "> 2000 nM"
  },
  {
    "COMPOUND": "Cc1cccc(N2C(=O)c3ccc(C(=O)NCC(O)CN4CCN(c5ccccc5OC(C)C)CC4)cc3C2=O)c1 (stereo not given)",
    "Ki": "> 2000 nM"
  }
]
